The measured values listed here are drawn from PubChem BioAssay AID2060889.

# Test system: LG0567-F671-PDC complex spheroids viability;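 further: spheroids exposed to compound for seven days before readout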
# assay_method_text: Anticancer human tumor LG0567-F671-PDC patient-derived lung adenocarcinoma cell line growth inhibition [RAS]
# condition_context: second compound 0.3 µM; first compound 1 µM; stronger effect = lower value
quantity_name: viability, T/C (%)
Note: unit % is implicit; provide only the numeric part.

// known answers, use as guide
C=CC(=O)N1CCN(c2nc(OCC3CCCN3C)nc3c(F)c(-c4nc(N)cc(C)c4C(F)(F)F)c(Cl)cc23)C(C)C1 (stereo not drawn) + CCn1c(-c2cc(N3CCN(C)CC3)cnc2C(C)OC)c2c3cc(ccc31)-c1csc(n1)CC(NC(=O)C1CC1C)C(=O)N1CCCC(N1)C(=O)OCC(C)(C)C2; 2.96
NC1c2ccccc2OC12CCN(c1cnc3c(N4CCCc5ncccc54)n[nH]c3n1)CC2 (stereo not drawn) + CCn1c(-c2cc(N3CCN(C)CC3)cnc2C(C)OC)c2c3cc(ccc31)-c1csc(n1)CC(NC(=O)C1CC1C)C(=O)N1CCCC(N1)C(=O)OCC(C)(C)C2; 0.72
CCC(CC)c1cc(NC2CCC(N)C2)n2nccc2n1 (stereo not drawn) + CCn1c(-c2cc(N3CCN(C)CC3)cnc2C(C)OC)c2c3cc(ccc31)-c1csc(n1)CC(NC(=O)C1CC1C)C(=O)N1CCCC(N1)C(=O)OCC(C)(C)C2; 1.46

*Q* Fill in: viability, T/C of Cc1nc(N2CCC3(CC2)COC(C)C3N)c(CO)nc1Sc1ccnc(N)c1Cl (stereo not drawn) + CCn1c(-c2cc(N3CCN(C)CC3)cnc2C(C)OC)c2c3cc(ccc31)-c1csc(n1)CC(NC(=O)C1CC1C)C(=O)N1CCCC(N1)C(=O)OCC(C)(C)C2 is ___
*A* 0.98

*Q* I would be grateful if you could share the reported viability, T/C for CCN1CCN(Cc2ccc(Nc3ncc(F)c(-c4cc(F)c5nc(C)n(C(C)C)c5c4)n3)nc2)CC1 + CCn1c(-c2cc(N3CCN(C)CC3)cnc2C(C)OC)c2c3cc(ccc31)-c1csc(n1)CC(NC(=O)C1CC1C)C(=O)N1CCCC(N1)C(=O)OCC(C)(C)C2 .
*A* 4.38

*Q* What does the record list as viability, T/C for CCN1CCN(Cc2ccc(Nc3ncc(F)c(-c4cc(F)c5nc(C)n(C(C)C)c5c4)n3)nc2)CC1 + CCn1c(-c2cccnc2C(C)OC)c2c3cc(ccc31)N1CCOC(CC(NC(=O)C(C(C)C)N(C)C(=O)C3(F)CCN(C(=O)C#CC(C)(C)N(C)C)CC3)C(=O)N3CCCC(N3)C(=O)OCC(C)(C)C2)C1 ?
*A* 11.4

*Q* What value of viability, T/C has been reported for the following compound? CC(=O)OC12COC1CC(O)C1(C)C(=O)C(O)C3=C(C)C(OC(=O)C(O)C(NC(=O)OC(C)(C)C)c4ccccc4)CC(O)(C(OC(=O)c4ccccc4)C21)C3(C)C (stereo not drawn) + CCn1c(-c2cccnc2C(C)OC)c2c3cc(ccc31)N1CCOC(CC(NC(=O)C(C(C)C)N(C)C(=O)C3(F)CCN(C(=O)C#CC(C)(C)N(C)C)CC3)C(=O)N3CCCC(N3)C(=O)OCC(C)(C)C2)C1
*A* 6.97

*Q* For the compound shown here, Nc1ccn(C2OC(CO)C(O)C2(F)F)c(=O)n1 (stereo not drawn) + CCn1c(-c2cc(N3CCN(C)CC3)cnc2C(C)OC)c2c3cc(ccc31)-c1csc(n1)CC(NC(=O)C1CC1C)C(=O)N1CCCC(N1)C(=O)OCC(C)(C)C2 , give the reported viability, T/C.
*A* 3.48
